measuredTarget: T1, RSV postfusion F (postF), subtype B (respiratory syncytial virus, subtype B)
T1 construct: also called F ΔFP; Postfusion subtype B
T1 sequence (P13843 26-109, chain 1 of 2): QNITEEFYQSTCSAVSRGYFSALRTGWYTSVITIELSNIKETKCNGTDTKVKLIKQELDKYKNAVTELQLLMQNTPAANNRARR
T1 sequence (P13843 147-513, chain 2 of 2): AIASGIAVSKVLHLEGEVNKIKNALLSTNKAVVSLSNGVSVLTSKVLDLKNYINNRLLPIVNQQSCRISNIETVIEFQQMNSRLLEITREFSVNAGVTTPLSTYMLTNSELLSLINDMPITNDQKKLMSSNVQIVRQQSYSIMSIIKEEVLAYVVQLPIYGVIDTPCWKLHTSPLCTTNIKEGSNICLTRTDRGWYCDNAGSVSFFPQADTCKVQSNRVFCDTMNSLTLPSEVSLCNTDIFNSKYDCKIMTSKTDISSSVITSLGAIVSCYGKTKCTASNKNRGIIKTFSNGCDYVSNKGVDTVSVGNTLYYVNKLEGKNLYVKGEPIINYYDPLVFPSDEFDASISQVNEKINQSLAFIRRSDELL
measurementDescription: BLI, IgG
Give measured Kd for each item. Keep answers brief.
Give bare numbers, in nM.

>  <binder>
ADI-14573 (antibody, V domains shown) VH: QVQLVQSGAEVKKPGASVKVSCKASGYTFTTYGISWVRQAPGQGLEWMGWISTYKTYTNYAQKFQGRVTMTTDTSTSTAYMELRSLRSDDTAVYYCAKVAGGSGSYGDYWGQGTLVTVSS VL: QPVLTQPPSVSVAPGKTARITCGGNNIGSKSVHWYLQKPGQAPVLVIYYDSDRPSGIPERFSGSNSGNTATLTISRVEAGDEADFFCQVWDSSSDHWVFGGGTKVTVL

>  <measuredProperty>
Kd

>  <numericReadout>
3.55

$$$$
>  <binder>
ADI-21054 (antibody, V domains shown) VH: QVQLVESGGGVVQPGRSLRLSCAASGFSFSNYGMHWVRQAPGKGLEWVVGISFDGSYIFHGGSVTGRFNISRDNSKNTLYLQVNSVRAEDTAVYYCARDPQYYDDWSGYSGLLHYYLYMDVWGKGTTVTVSS VL: DIQLTQSPSTLSASVGDRVTITCRASQSIGTSLAWYQQIPGKAPKLLIYRASSLESGVPSRFSGGGSGTQFTLTISSLQPDDFATYYCQQYNNYSPTFGQGTKLEIK

>  <measuredProperty>
Kd

>  <numericReadout>
0.306

$$$$
>  <binder>
ADI-20960 (antibody, V domains shown) VH: QVQLQQWGAGVLKPSETLSLTCAVNGRSLSGHYWSWIRQTPGKGLEWIGEINNSGGTHYSPSLKSRVIISGDTAKNQLSLKLSSVTAADTAVYYCAKGSAEWYFDLWGRGTLVTVSS VL: DIRVTQSPSTLSASVGDRVTITCRASQSVSTWLAWYQQKPGKPPSLLIFKASTLESGVPSRFSGSGSGTEFTLTISSLQPDDFATYYCQQYNTYSPWTFGPGTKVEIK

>  <measuredProperty>
Kd

>  <numericReadout>
0.163

$$$$

# evaluate next
Prompt: For the binder ADI-14418 (antibody, V domains shown, also called Ab 84) VH: QVQLVQSGAEVKKPGSSVKVSCKASGGTFTNYNINWVRQAPGQGLQWMGRISPTFAIANYAQKFQGRVTITADKSTSTAYMELSSLRSEDTAVYYCARAPHSGYDLALDYWGQGTLVTVSS VL: DIQMTQSPSTLSASVGDRVTITCRASQSISSWLAWYQQKPGKAPKLLIYEASSLQSGVPSRFSGSGSGTEFTLTITSLQPDDFATYYCQQYNVYPWTFGQGTKVDIK , what Kd is on record?
Completion: 0.258
